Listing of entries alongside the reported Content reduction (%).
# test.protocol: Stability test of compounds in solutions at different pH values
# experimental.context: buffered saline solution pH 4.0, 12 h
State just the number; it will be interpreted in %.

Below, each entry is followed by its recorded Content reduction (%) result.
• CC(C)C(=O)OC[C@@]1(F)O[C@@H](n2ccc(=O)n(COC(=O)C3CCCCC3)c2=O)[C@H](O)[C@@H]1O [Compound X55] = 9.0
• CC(C)C(=O)OCn1c(=O)ccn([C@@H]2O[C@](F)(COC(=O)C(C)C)[C@@H](O)[C@H]2O)c1=O [Compound X51] = 3.4
• CC(=O)OC[C@@]1(F)O[C@@H](n2ccc(=O)n(COC(=O)c3cccnc3)c2=O)[C@H](OC(C)=O)[C@@H]1OC(C)=O.Cl [X219 hydrochloride] = 0.55

Reported Content reduction (%), compound CC(=O)OC[C@@]1(F)O[C@@H](n2ccc(=O)n(COC(=O)c3cccnc3)c2=O)[C@H](OC(C)=O)[C@@H]1OC(C)=O [Compound X219] : ____
0.62
